pIC50: −log10 of the molar value.
// cross-study collection: pIC50 for Epidermal growth factor receptor (Homo sapiens)

compound	pIC50
C=CC(=O)Nc1cccc(Nc2cc(Oc3ccc(Oc4ccccc4)cc3)ncn2)c1	≥ 8.00
C=CC(=O)Nc1cccc(N2C(=O)N(C)Cc3cnc(Nc4ccc(OCCOC)cc4OC)nc32)c1	≥ 8.00
CCNc1nc(-c2cc(OC)cc(OC)c2)c(-c2ccnc(Nc3ccc(OC4CCN(CCS(C)(=O)=O)CC4)c(F)c3)n2)s1	< 6.00
COc1cc(N2CCN(CCS(C)(=O)=O)CC2)c(C)cc1Nc1nccc(-c2sc(C(C)C)nc2-c2cccc(NS(=O)(=O)c3cn(C)cn3)c2)n1	< 6.00
C=CC(=O)N1CCOc2ccc(-c3c(-c4ccc(CN5CCN(C)CC5)cc4)[nH]c4nccc(Cl)c34)cc21	≥ 7.00
C=C(C#N)C(O)c1cccc(Nc2cc(Nc3ccc(Oc4ccccc4)cc3)ncn2)c1 (stereo not shown)	7.00 to 8.00

[Q] I would be grateful if you could share the reported pIC50 for `COc1cc(-n2c(=O)n([C@@H]3CCN(C(=O)/C=C/CN(C)C)C3)c3ncnc(N)c32)ccc1C` .
[A] < 5.00

* * *

// molecules with pIC50 on UniProt:P00533, multi-source literature
pIC50: −log10 of the molar value.

Worked examples, 3 molecules total:
structure_as_smiles	pIC50
C=CC(=O)N1CCOc2c1ccc1ncnc(Oc3ccc(OCc4ccc(F)cc4)cc3)c21	≥ 7.30
CC(C)c1nc(-c2cccc(NS(=O)(=O)c3c(F)cccc3F)c2)c(-c2ccnc(Nc3ccc(N4CCOCC4)c(C(=O)O)c3)n2)s1	6.00 to 7.00
COc1cc(NC(=O)/C=C/CN(C)C2CC2)cc(-n2c(=O)n(-c3ccc(Oc4ccccc4)cc3C)c3c(N)ncnc32)c1	6.00 to 7.00

[Q] # returns recorded pIC50 (system: UniProt:P00533) for `CS(=O)(=O)CCN1CCN(c2ccc(Nc3nccc(-c4oc(N5CCCC5)nc4-c4ccc(F)c(NS(=O)(=O)c5c(F)cccc5F)c4)n3)cc2F)CC1`
[A] < 6.00

[Q] Given the entry `CCNc1nc(-c2cccc(Cl)c2)c(-c2ccnc(Nc3ccc(OCCN(C)C)c(Cl)c3)n2)s1` , what pIC50 was observed with UniProt:P00533?
[A] > 7.00

[Q] Form: Entry = `C=CC(=O)Nc1cccc(-n2c(=O)c(-c3ccccc3)nc3cnc(Nc4ccc(N5CCN(C)CC5)cc4OC)nc32)c1` | System = UniProt:P00533 | pIC50 = ____
[A] 10.10

[Q] Find the measured pIC50: item `Cc1ccc(Nc2ncnc3cc(OC(C)C)c4c(c23)OCCO4)cc1C#N` , target or system UniProt:P00533.
[A] > 6.40

[Q] Item: `C/C=C/C(=O)Nc1cccc(Nc2cc(Nc3cccc(Br)c3)ncn2)c1` Test system: UniProt:P00533 Read-out: pIC50 Value: ?
[A] ≥ 8.00

[Q] Recorded pIC50 for `C=CC(=O)Nc1cc(-c2c(-c3ccc(N4CCN(C)CC4)cc3)[nH]c3ncc(C(=O)OCCOC)cc23)ccc1C` with UniProt:P00533, please?
[A] ≥ 7.00

[Q] What is its pIC50 for UniProt:P00533? Entry: `CC(C)Oc1nn([C@@H](C)CO)c2c1/C=C/c1n[nH]c3ccc(cc13)-c1cnn(C)c1O[C@H](C)CN(C(C)C)C2`
[A] < 6.00

[Q] Tell me reported pIC50 for `CC(=O)O[C@H]1CO[C@H]2[C@@H]1OC[C@@H]2Oc1ccc(Nc2ncnc3ccsc23)cc1` , tested with UniProt:P00533.
[A] < 6.00

[Q] Find the measured pIC50: item `CCc1nc(-c2cccc(CNS(=O)(=O)c3ccccc3)c2)c(-c2ccnc(Nc3ccc(N4CCN(CCS(C)(=O)=O)CC4)c(F)c3)n2)s1` , target or system UniProt:P00533.
[A] 6.00 to 7.00

[Q] Tell me reported pIC50 for `C=CC(=O)Nc1ccc(OC)c(Nc2ncc(Cl)c(Nc3ccc4ccccc4c3)n2)c1` , tested with UniProt:P00533.
[A] 6.76

[Q] Notebook entry, UniProt:P00533 assay: pIC50 of `CCN1CCC(Nc2ccc3c(c2)/C(=C(/c2ncc[nH]2)c2cc(F)c(Cl)cc2Cl)C(=O)N3)CC1` = ?
[A] 6.30 to 7.30

[Q] Form entry - test system: UniProt:P00533; read-out: pIC50; molecule: `C=CC(=O)N(C)c1cccc(Nc2cc(Nc3ccc(Oc4ccccc4)cc3)ncn2)n1`
[A] ≥ 8.00

[Q] Record `C#Cc1cc(Nc2ncnc3cc(OCCOC)c(OCCCCCCC(=O)NO)cc23)ccc1F` : what is its pIC50 with UniProt:P00533?
[A] > 7.00

[Q] Given the entry `C=CS(=O)(=O)Nc1cccc(N2C(=O)N(C)Cc3cnc(Nc4ccc(N5CCN(C)CC5)cc4OC)nc32)c1` , what pIC50 was observed with UniProt:P00533?
[A] ≥ 8.00

[Q] Missing value: pIC50, UniProt:P00533, entry `Nc1ncnc2c1c(-c1ccc(CNC(=O)c3nccc4ccccc34)cc1)nn2C1CCCC1` . Fill in?
[A] 5.00 to 6.00
